Recorded log fold change Tl+ flux for the following compounds
Test system: F380Y
Assay: modulators of BK channel variants, profiling panel, selectivity assay, cell-based, U2OS BacMam, thallium flux, beta subunits (AID 1259406);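 also: initial slope of Thallos dye fluorescence rise after thallium is added; log ratio against the mean of 0.3% DMSO vehicle wells on the same plate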
Conditions: at 30 µM
Calls of active or inactive are those of the source.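 The calls were made as follows: active = thallium flux through the channel raised or lowered by more than 3 SD from vehicle-only wells, actives on both sides; inactive = the rest.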
Outcome measure: log fold change Tl+ flux

Compound	Data value
CN(CCO)CC(O)Cn1cnc2c1c(=O)n(C)c(=O)n2C (centres undefined) (tested in a mixture with another compound)	0.0136 (inactive)
O=C1NC2CC2N1C(=O)OCc1ccccc1 (centres undefined)	0.0285 (inactive)
C[C@H]1O[C@H](O[C@H]2[C@H](O)[C@@H](O)[C@@H](O[C@H]3[C@H](O)[C@@H](O)C(O)O[C@@H]3CO)O[C@@H]2CO)[C@H](O)[C@@H](O)[C@@H]1N[C@H]1C=C(CO)[C@@H](O)[C@H](O)[C@H]1O (some centres undefined)	-0.0255 (inactive)
C=CC1=C(C(=O)O)N2C(=O)[C@@H](NC(=O)C(=NOCC(=O)O)c3csc(N)n3)[C@H]2SC1	0.0111 (inactive)

The values you see were collected from PubChem BioAssay.
